Test: Half life in cynomolgus monkey at 1 mg/kg, iv and 1.5 mg/kg, po
Assay type: ADME, organism-based, Macaca fascicularis
Settings: in vivo
parameter.measured: half-life (h)
Numbers only here, please. The scale is h.

INPUT: State its half-life for this molecule: C[C@H]1OC(=O)[C@@H]2C[C@@H]3COCC[C@H]3[C@H](/C=C/c3ccc(-c4ccccc4F)cn3)[C@H]12
OUTPUT: 8.6

###

Test: Bioavailability in cynomolgus monkey at 3 mg/kg, po
Type: ADME, organism-based, Macaca fascicularis
Conditions: in vivo
parameter.measured: bioavailability (%)
Numbers only here, please. The scale is %.

INPUT: State its bioavailability for this compound: CCOC(=O)N1CC[C@@H]2[C@H](C[C@H]3C(=O)O[C@H](C)[C@H]3[C@H]2/C=C/c2ccc(-c3cccc(F)c3)cn2)C1
OUTPUT: 62
